- testDetails: NOVARTIS: Cytotoxicity against human hepatocellular carcinoma cell line (Huh7)
- Type: toxicity, cell-based, Huh-7
- testParameters: Huh7 cells (hepatocellular carcinoma cell line)
measuredAttribute: CC50

>>> df
                                    compound  measuredattribute  reportedresult
 0         CN(c1ncnc2sc3c(c12)CCCC3)C1CCCCC1               CC50         > 10 µM
 1  Cc1cc(C)[n+](C)n1CC(O)Cn1c2ccccc2c2ccccc21 (stereo not drawn)               CC50        > 100 µM
 2                  CC=Cc1n(C)c2ccccc2[n+]1C               CC50        > 100 µM
 3  CCOC(=O)c1c(C)[n+](-c2ccc(C)cc2)c(CC)c2cc(OC)c(OC)cc12               CC50         > 94 µM
 4  CC(C)NC(=O)c1ccc2c(c1)N=C(c1ccccc1)N(C1CC1)C2               CC50         > 10 µM
 5  COC(=O)c1ccc2c(=O)n(Cc3ccco3)c(SCC(=O)n3nc(N)cc3C)nc2c1               CC50        > 100 µM
 6       CCc1nc2nc(C)cc(Nc3ccc(C)c(F)c3)n2n1               CC50        > 100 µM
 7   O=[N+]([O-])c1cccc(CNc2ccc(F)c(Cl)c2)c1               CC50       > 95.6 µM
 8           C/N=C(\N)Nc1nc(C)c2cc(OC)ccc2n1               CC50         > 10 µM
 9  CC(C)(C)CC(C)(C)Nc1c(-c2ccccc2OC(=O)c2ccc(Cl)c(Cl)c2)nc2ccccn12               CC50         > 10 µM
10        COCC(=O)N(C)CCCNc1ccnc2cc(Cl)ccc12               CC50         > 10 µM
11     CC1(C)Oc2ccc3ccc(=O)oc3c2CC1=NNC(N)=S               CC50        > 100 µM
12  COc1ccc2c(c1)[nH]c1c(N3CCN(C(c4ccccc4)c4ccccc4)CC3)ncnc12               CC50         16.3 µM
13             Cc1ccc2[nH]c(C)c(Br)c(=O)c2c1               CC50        > 100 µM
14  COc1ccc(NC(=O)CCCCCn2c(SCc3cc(=O)oc4cc(O)ccc34)nc3ccsc3c2=O)cc1               CC50        > 100 µM
15  O=C(Nc1cccc(Cl)c1)Nc1cc(C(F)(F)F)cc(C(F)(F)F)c1               CC50         19.5 µM
16  CC(=O)Nc1sc(C)c(C)c1N=Nc1ccc(S(=O)(=O)O)cc1               CC50         > 10 µM
17  O=C(c1ccc([N+](=O)[O-])cc1)N1CCC(c2nc(O)c3nnn(Cc4c(F)cccc4Cl)c3n2)CC1               CC50        > 100 µM
18  COc1ccc(CNC2CCN(CCN3CCCCC3)C(c3ccc(OCc4ccccc4)cc3)C2)cc1OC (stereo not drawn)               CC50         5.06 µM
19  COc1ccc(N(C)C(=O)CNC(=O)c2nn(-c3ccc(OC)cc3OC)c(=O)c3ccccc23)cc1               CC50         > 10 µM
20      COc1ccc(CN2CCc3nc(N4CCCCC4)sc3C2)cc1               CC50         > 10 µM
21  CCOC(=O)c1cnc2cc(Cl)c(OC)cc2c1NCCCN1CCOCC1               CC50         > 10 µM
22  CN(CCCNc1ccnc2cc(Cl)ccc12)C(=O)CC(C)(C)C               CC50         > 10 µM
23  O=S(=O)(c1ccc(Cl)cc1)N1CCN(C(=S)NCc2ccco2)CC1               CC50        > 100 µM
24              c1ccc(CSc2nc3ccncc3[nH]2)cc1               CC50         > 10 µM
25  Oc1ccc(-c2cccnc2)cc1CNC1C2CC3CC(C2)CC1C3 (stereo not drawn)               CC50        > 100 µM
26        Clc1ccc2c(c1)c(-c1ccccc1)nc1nnnn12               CC50         > 10 µM
27  Cc1nc([P+](c2ccccc2)(c2ccccc2)c2ccccc2)c(N2CCCCC2)o1               CC50         7.12 µM
28    NC(=O)c1ccc(-n2nnnc2SCc2ccc(Cl)cc2)cc1               CC50        > 100 µM
29  COc1ccc(S(=O)(=O)ON=C2C=C(C(C)C)C(=O)C=C2C)cc1               CC50         18.3 µM
30  COc1ccc(CNC(=O)C(Cc2c[nH]c3ccccc23)N2CCS(=O)(=O)CC2)cc1 (stereo not drawn)               CC50         8.04 µM
31  Cc1cccc(NC(=O)CCCn2c(=O)c3cccn3c3ccccc32)c1C               CC50        > 100 µM
32  CCCCCCN(C(=O)COc1ccc(Cl)cc1)C(CC)c1nc2ccccc2c(=O)n1-c1cccc(Cl)c1 (stereo not drawn)               CC50         > 10 µM
33  CCN(CC)c1ccc(N=Cc2ccccc2[N+](=O)[O-])cc1               CC50         27.7 µM
34  Cc1ccc(C2CC(C(F)(F)F)n3ncc(C(=O)Nc4ccc(Cl)cc4)c3N2)cc1 (stereo not drawn)               CC50           95 µM
35  CCOC(=O)C1=C(C)NC2=C(C(=O)CC(c3ccc(OC)cc3)C2)C1c1ccsc1 (stereo not drawn)               CC50        > 100 µM
36  COc1ccc(C2=C(c3ccc(OC)cc3)C3(c4ccccc4)C(=O)C2(c2ccccc2)C2C(=O)N(c4ccc(C)cc4)C(=O)C23)cc1 (stereo not drawn)               CC50        > 100 µM
37  O=C(C1CC1)N1CCc2cc(Br)cc(S(=O)(=O)N3CCCCCC3)c21               CC50        > 100 µM
